B1: TRAF3IP2 (parent)
chain: FMEKRNQWLVSQLSAASPDTGHDS

variants of: B1; test: protein stability index of a GFP-peptide fusion (GPS, HEK-293T) (PSI 1-6); higher = more stable; settings: c terminus: a fixed tail appended;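 also: lentivirally expressed fusions sorted by FACS into six bins by GFP to DsRed ratio, PSI derived from sequencing read proportions per bin multiplied by bin number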
What protein stability index was measured for each of the following?
Give your answer as a number; write no unit.

**Query** Recorded protein stability index of "FMEKRNQWLVSQLSAASPMTGHDS" , please.
**Result** 2.57

**Query** Now consider "FMEKRNQWLVSQLSHASPDTGHDS" and answer again.
**Result** 2.33

**Query** Now consider "FREKRNQWLVSQLSAASPDTGHDS" and answer again.
**Result** 3.56

**Query** Now consider "FMEKRNQWLVSQLSAAWPDTGHDS" and answer again.
**Result** 1.57

**Query** Now consider "FMEKRNQWLVSQLSAAVPDTGHDS" and answer again.
**Result** 1.88

**Query** Now consider "FSEKRNQWLVSQLSAASPDTGHDS" and answer again.
**Result** 2.2

**Query** Now consider "FMEKRNQWLVSQLSAASPKTGHDS" and answer again.
**Result** 2.28

**Query** Now consider "FMEKRNQWLVSYLSAASPDTGHDS" and answer again.
**Result** 1.98

**Query** Now consider "FMEKRNQWLVSQLSAASPDVGHDS" and answer again.
**Result** 2.75

**Query** Now consider "FQEKRNQWLVSQLSAASPDTGHDS" and answer again.
**Result** 3.27

**Query** Now consider "FMEKRNQWIVSQLSAASPDTGHDS" and answer again.
**Result** 2.9

**Query** Now consider "FNEKRNQWLVSQLSAASPDTGHDS" and answer again.
**Result** 3.29

**Query** Now consider "FMEKRNQWLVSQLSAASPDTGHCS" and answer again.
**Result** 1.73

**Query** Now consider "FMEKRNQWGVSQLSAASPDTGHDS" and answer again.
**Result** 3.34

**Query** Now consider "FMEKRNQWLVSQLSAASPDFGHDS" and answer again.
**Result** 1.97

**Query** Now consider "FMEKRNQWLVSQLSAASPATGHDS" and answer again.
**Result** 3.69

**Query** Now consider "FMEKRNQWLVSQLSASSPDTGHDS" and answer again.
**Result** 2.39

**Query** Now consider "FMEKRNQRLVSQLSAASPDTGHDS" and answer again.
**Result** 4.68

**Query** Now consider "FMEKRNQWLVSQLFAASPDTGHDS" and answer again.
**Result** 1.93

**Query** Now consider "FMEKRAQWLVSQLSAASPDTGHDS" and answer again.
**Result** 2.24

**Query** Now consider "FMEQRNQWLVSQLSAASPDTGHDS" and answer again.
**Result** 2.57

**Query** Now consider "FMDKRNQWLVSQLSAASPDTGHDS" and answer again.
**Result** 2.24

**Query** Now consider "FMEKINQWLVSQLSAASPDTGHDS" and answer again.
**Result** 1.68

**Query** Now consider "FMEKRNQWLVSQDSAASPDTGHDS" and answer again.
**Result** 3.45

**Query** Now consider "FMEKRNQWLVSQLSAASPDTGHDE" and answer again.
**Result** 3.68

**Query** Now consider "FMEKRNQWLVSQMSAASPDTGHDS" and answer again.
**Result** 2.48

**Query** Now consider "FMEKRNQWLVSQLSAANPDTGHDS" and answer again.
**Result** 2.35

**Query** Now consider "FMEKRNQWLVLQLSAASPDTGHDS" and answer again.
**Result** 1.46

**Query** Now consider "FMEKRNQWLVSQLSIASPDTGHDS" and answer again.
**Result** 1.77

**Query** Now consider "FMFKRNQWLVSQLSAASPDTGHDS" and answer again.
**Result** 2.94

**Query** Now consider "FMEKRNQWLVSQLSAADPDTGHDS" and answer again.
**Result** 2.94

**Query** Now consider "FMEKKNQWLVSQLSAASPDTGHDS" and answer again.
**Result** 2.38

**Query** Now consider "FMEKRNQWLVSQLLAASPDTGHDS" and answer again.
**Result** 1.66

**Query** Now consider "FMEKRNQWLVSDLSAASPDTGHDS" and answer again.
**Result** 3.21

**Query** Now consider "FMEKRNQWLVSQLSAASPDTQHDS" and answer again.
**Result** 2.52

**Query** Now consider "FMEKRNQGLVSQLSAASPDTGHDS" and answer again.
**Result** 5.09

**Query** Now consider "FMCKRNQWLVSQLSAASPDTGHDS" and answer again.
**Result** 1.58

**Query** Now consider "FMEKRNQWLVSQLSAASPDTNHDS" and answer again.
**Result** 2.56

**Query** Now consider "FMEKRNQWLVSQLSAASPTTGHDS" and answer again.
**Result** 3.02

**Query** Now consider "FMEKRNQWLVSQLIAASPDTGHDS" and answer again.
**Result** 2.08

**Query** Now consider "YMEKRNQWLVSQLSAASPDTGHDS" and answer again.
**Result** 2.84

**Query** Now consider "FMEKRNQELVSQLSAASPDTGHDS" and answer again.
**Result** 4.74

**Query** Now consider "FMEKRNQWLVSQSSAASPDTGHDS" and answer again.
**Result** 3.17

**Query** Now consider "FMEKRNQWLVSQLSAAPPDTGHDS" and answer again.
**Result** 2.66

**Query** Now consider "FMEKRNQKLVSQLSAASPDTGHDS" and answer again.
**Result** 4.57

**Query** Now consider "FMEKRNTWLVSQLSAASPDTGHDS" and answer again.
**Result** 1.79

**Query** Now consider "FMEKRNQWLVEQLSAASPDTGHDS" and answer again.
**Result** 3.27

**Query** Now consider "FMEKRHQWLVSQLSAASPDTGHDS" and answer again.
**Result** 2.05

**Query** Now consider "FMEKYNQWLVSQLSAASPDTGHDS" and answer again.
**Result** 1.89

**Query** Now consider "FEEKRNQWLVSQLSAASPDTGHDS" and answer again.
**Result** 4.75

**Query** Now consider "FMEKRNQWLVSQLVAASPDTGHDS" and answer again.
**Result** 1.65

**Query** Now consider "FMEKRNQNLVSQLSAASPDTGHDS" and answer again.
**Result** 5.08

**Query** Now consider "FMEKRNQWLVSILSAASPDTGHDS" and answer again.
**Result** 1.89

**Query** Now consider "FMEKRNQWLVSQLSAASPDTGHDF" and answer again.
**Result** 2.15

**Query** Now consider "FMEKRNQWLVSQLSAASEDTGHDS" and answer again.
**Result** 2.62

**Query** Now consider "FMEKRLQWLVSQLSAASPDTGHDS" and answer again.
**Result** 1.51

**Query** Now consider "FMEKRNQWLVSQLSAASPDHGHDS" and answer again.
**Result** 2.38

**Query** Now consider "FMEKRNQWLVSQLSAASPDTGEDS" and answer again.
**Result** 3.38

**Query** Now consider "FMEKRNQWLVSQTSAASPDTGHDS" and answer again.
**Result** 2.67

**Query** Now consider "FMEKRNQWLVSQLSAASPDTGHKS" and answer again.
**Result** 1.6

Where these numbers come from: the supplement of paper PMC10567573
